Tested on: HepG2
Assay: Induction of apoptosis in human HepG2 cells assessed as viable cells at 20 uM measured after 48 hrs by Annexin V-FITC/propidium iodide staining based flow cytometry (reference value: 96.84%)
Format: functional
Conditions: read-out: Activity
Listing: viability at 20 µM of selected compounds
Could you give me the number in %? Just the number is fine.

// worked examples, viability at 20 µM included
chemical-string: Cc1cc(OCCOc2ccc(C[C@H](NC(=O)c3ccccc3)C(=O)NS(=O)(=O)c3ccc(NCCCc4ccccc4)c([N+](=O)[O-])c3)cc2)cc(C)c1Cl
viability at 20 µM [%]: 18.5

chemical-string: Cc1cc(OCCCOc2ccc(C[C@H](NC(=O)OC(C)(C)C)C(=O)NS(=O)(=O)c3ccc(NCCCc4ccccc4)c([N+](=O)[O-])c3)cc2)cc(C)c1Cl
viability at 20 µM [%]: 15.4

Name the recorded viability at 20 µM for O=C(O)CSc1cc(NS(=O)(=O)c2ccc(Br)cc2)c2ccccc2c1O .
11

Entry Cc1ccc(CC(=O)N[C@@H](Cc2cc(Br)c(OCCOc3cccc4ccccc34)c(Br)c2)C(=O)NS(=O)(=O)c2ccc(NCCCc3ccccc3)c([N+](=O)[O-])c2)cc1 has what viability at 20 µM?
15.6

---

System: HepG2
Experiment: Antiproliferative activity against human HepG2 cells incubated for 72 hrs by MTT assay
Type: functional, cell-based
Conditions: HepG2, 72 h
parameter-measured: pIC50
// field semantics: pIC50 = negative decimal log of concentration (mol/L)

chemical-string: Cc1ccc(CC(=O)N[C@@H](Cc2cc(I)c(OCCOc3cccc4ccccc34)c(I)c2)C(=O)NS(=O)(=O)c2ccc(NCCCc3ccccc3)c([N+](=O)[O-])c2)cc1
pIC50: 4.90

Which measured pIC50 value corresponds to Cc1cc(OCCCCOc2ccc(C[C@H](NC(=O)OC(C)(C)C)C(=O)NS(=O)(=O)c3ccc(NCCCc4ccccc4)c([N+](=O)[O-])c3)cc2)cc(C)c1Cl ?
4.96

Record request: pIC50 value, item Cc1cc(OCCCOc2ccc(C[C@H](NC(=O)OC(C)(C)C)C(=O)NS(=O)(=O)c3ccc(NCCCc4ccccc4)c([N+](=O)[O-])c3)cc2)cc(C)c1Cl
5.19

# query: pIC50 of entry O=C(O)CSc1cc(NS(=O)(=O)c2ccc(Br)cc2)c2ccccc2c1O
4.94

Sample Cc1ccc(CC(=O)N[C@@H](Cc2cc(Br)c(OCCOc3cccc4ccccc34)c(Br)c2)C(=O)NS(=O)(=O)c2ccc(NCCCc3ccccc3)c([N+](=O)[O-])c2)cc1 — what was its pIC50?
5.12

Entry under review: Cc1cc(OCCOc2ccc(C[C@H](NC(=O)c3ccccc3)C(=O)NS(=O)(=O)c3ccc(NCCCc4ccccc4)c([N+](=O)[O-])c3)cc2)cc(C)c1Cl . Reported pIC50?
4.93

---

System: HepG2
Test: Induction of apoptosis in human HepG2 cells assessed as early apoptotic cells at 20 uM measured after 48 hrs by Annexin V-FITC/propidium iodide staining based flow cytometry (reference value: 0.71%)
Assay type: functional
Recorded Activity for the following molecules
State the answer as a number, implicitly in %.

Recorded Activity, per entry:
chemical-string: Cc1cc(OCCCOc2ccc(C[C@H](NC(=O)OC(C)(C)C)C(=O)NS(=O)(=O)c3ccc(NCCCc4ccccc4)c([N+](=O)[O-])c3)cc2)cc(C)c1Cl
assayed-target: HepG2
Activity (%): 3.4

chemical-string: Cc1cc(OCCOc2ccc(C[C@H](NC(=O)c3ccccc3)C(=O)NS(=O)(=O)c3ccc(NCCCc4ccccc4)c([N+](=O)[O-])c3)cc2)cc(C)c1Cl
assayed-target: HepG2
Activity (%): 2.25

chemical-string: Cc1ccc(CC(=O)N[C@@H](Cc2cc(Br)c(OCCOc3cccc4ccccc34)c(Br)c2)C(=O)NS(=O)(=O)c2ccc(NCCCc3ccccc3)c([N+](=O)[O-])c2)cc1
assayed-target: HepG2
Activity (%): 2.38

Consider the molecule O=C(O)CSc1cc(NS(=O)(=O)c2ccc(Br)cc2)c2ccccc2c1O and give its measured Activity.
2.44

---

Measured viability at 10 µM values are reported for all entries that follow.
Experiment: Induction of apoptosis in human KM3 cells assessed as viable cells at 10 uM measured after 48 hrs by Annexin V-FITC/propidium iodide staining based flow cytometry (reference value: 96.24%)
Assay type: functional
Conditions: read-out: Activity
The response must be a number in % with no trailing unit.

chemical-string: O=C(O)CSc1cc(NS(=O)(=O)c2ccc(Br)cc2)c2ccccc2c1O
viability at 10 µM / %: 72.7
--
chemical-string: Cc1ccc(CC(=O)N[C@@H](Cc2cc(Br)c(OCCOc3cccc4ccccc34)c(Br)c2)C(=O)NS(=O)(=O)c2ccc(NCCCc3ccccc3)c([N+](=O)[O-])c2)cc1
viability at 10 µM / %: 84.5
--
chemical-string: Cc1cc(OCCOc2ccc(C[C@H](NC(=O)c3ccccc3)C(=O)NS(=O)(=O)c3ccc(NCCCc4ccccc4)c([N+](=O)[O-])c3)cc2)cc(C)c1Cl
viability at 10 µM / %: 83

Any idea what its viability at 10 µM is? The compound is Cc1cc(OCCCOc2ccc(C[C@H](NC(=O)OC(C)(C)C)C(=O)NS(=O)(=O)c3ccc(NCCCc4ccccc4)c([N+](=O)[O-])c3)cc2)cc(C)c1Cl
82.3

---

Assay: Induction of apoptosis in human KM3 cells assessed as late apoptotic cells at 20 uM measured after 48 hrs by Annexin V-FITC/propidium iodide staining based flow cytometry (reference value: 1.15%)
Assay type: functional
// values below are reported Activity
Field: numeric (%). Do not append units.

chemical-string: Cc1cc(OCCOc2ccc(C[C@H](NC(=O)c3ccccc3)C(=O)NS(=O)(=O)c3ccc(NCCCc4ccccc4)c([N+](=O)[O-])c3)cc2)cc(C)c1Cl
Activity / %: 68.68

chemical-string: Cc1cc(OCCCOc2ccc(C[C@H](NC(=O)OC(C)(C)C)C(=O)NS(=O)(=O)c3ccc(NCCCc4ccccc4)c([N+](=O)[O-])c3)cc2)cc(C)c1Cl
Activity / %: 64.31

chemical-string: Cc1ccc(CC(=O)N[C@@H](Cc2cc(Br)c(OCCOc3cccc4ccccc34)c(Br)c2)C(=O)NS(=O)(=O)c2ccc(NCCCc3ccccc3)c([N+](=O)[O-])c2)cc1
Activity / %: 74.52

Need Activity, item O=C(O)CSc1cc(NS(=O)(=O)c2ccc(Br)cc2)c2ccccc2c1O
34.2

---

Experiment: Induction of apoptosis in human KM3 cells assessed as late apoptotic cells at 10 uM measured after 48 hrs by Annexin V-FITC/propidium iodide staining based flow cytometry (reference value: 1.15%)
Format: functional
Let's look at some molecules and their measured Activity.
Report as a plain number; the unit % is understood.

chemical-string: Cc1cc(OCCCOc2ccc(C[C@H](NC(=O)OC(C)(C)C)C(=O)NS(=O)(=O)c3ccc(NCCCc4ccccc4)c([N+](=O)[O-])c3)cc2)cc(C)c1Cl
Activity / %: 4.94

chemical-string: O=C(O)CSc1cc(NS(=O)(=O)c2ccc(Br)cc2)c2ccccc2c1O
Activity / %: 11.64

chemical-string: Cc1cc(OCCOc2ccc(C[C@H](NC(=O)c3ccccc3)C(=O)NS(=O)(=O)c3ccc(NCCCc4ccccc4)c([N+](=O)[O-])c3)cc2)cc(C)c1Cl
Activity / %: 5.52

# evaluate next
Item under review: Cc1ccc(CC(=O)N[C@@H](Cc2cc(Br)c(OCCOc3cccc4ccccc34)c(Br)c2)C(=O)NS(=O)(=O)c2ccc(NCCCc3ccccc3)c([N+](=O)[O-])c2)cc1 . Reported Activity?
4.31

---

System: MOLT-4
Experiment: Antiproliferative activity against human MOLT-4 cells incubated for 72 hrs by MTT assay
Type: functional, cell-based
Details: MOLT-4, 72 h
pIC50: −log10 of the molar value.
// NOT MET strictly below 5 in pIC50; MET otherwise

Could you please find out whether O=C(O)CSc1cc(NS(=O)(=O)c2ccc(Br)cc2)c2ccccc2c1O has pIC50 that meets 5 or exceeds it?
MET

Could you tell me if the measured pIC50 of Cc1ccc(CC(=O)N[C@@H](Cc2cc(I)c(OCCOc3cccc4ccccc34)c(I)c2)C(=O)NS(=O)(=O)c2ccc(NCCCc3ccccc3)c([N+](=O)[O-])c2)cc1 reaches 5 or more?
NOT MET

hey, is pIC50 for this one >= 5? Cc1ccc(CC(=O)N[C@@H](Cc2cc(Br)c(OCCOc3cccc4ccccc34)c(Br)c2)C(=O)NS(=O)(=O)c2ccc(NCCCc3ccccc3)c([N+](=O)[O-])c2)cc1
NOT MET

Determine whether measured pIC50 meets or exceeds 5 for Cc1cc(OCCCOc2ccc(C[C@H](NC(=O)OC(C)(C)C)C(=O)NS(=O)(=O)c3ccc(NCCCc4ccccc4)c([N+](=O)[O-])c3)cc2)cc(C)c1Cl
NOT MET

Hello, I need to know if Cc1cc(OCCCCOc2ccc(C[C@H](NC(=O)OC(C)(C)C)C(=O)NS(=O)(=O)c3ccc(NCCCc4ccccc4)c([N+](=O)[O-])c3)cc2)cc(C)c1Cl has measured pIC50 not below 5. Thanks!
NOT MET
